Provenance of the data: patent US6245799A

target: 5-HT transporter (Rattus norvegicus, UniProt P31652); construct: frontal cortical membranes prepared from male S.D. rats; from tissue; host or cells: frontal cortical membranes of male S.D. (Sprague-Dawley) rats; test: Rat Brain ^3 H-Paroxetine Binding Assay (RB 5HT Transporter); details: rat frontal cortical membranes; ^3 H-paroxetine (0.1 nM), 60 min, 25° C.; n = 1; read-out: RB 5HT Transporter Ki
Sequence (P31652 whole entry): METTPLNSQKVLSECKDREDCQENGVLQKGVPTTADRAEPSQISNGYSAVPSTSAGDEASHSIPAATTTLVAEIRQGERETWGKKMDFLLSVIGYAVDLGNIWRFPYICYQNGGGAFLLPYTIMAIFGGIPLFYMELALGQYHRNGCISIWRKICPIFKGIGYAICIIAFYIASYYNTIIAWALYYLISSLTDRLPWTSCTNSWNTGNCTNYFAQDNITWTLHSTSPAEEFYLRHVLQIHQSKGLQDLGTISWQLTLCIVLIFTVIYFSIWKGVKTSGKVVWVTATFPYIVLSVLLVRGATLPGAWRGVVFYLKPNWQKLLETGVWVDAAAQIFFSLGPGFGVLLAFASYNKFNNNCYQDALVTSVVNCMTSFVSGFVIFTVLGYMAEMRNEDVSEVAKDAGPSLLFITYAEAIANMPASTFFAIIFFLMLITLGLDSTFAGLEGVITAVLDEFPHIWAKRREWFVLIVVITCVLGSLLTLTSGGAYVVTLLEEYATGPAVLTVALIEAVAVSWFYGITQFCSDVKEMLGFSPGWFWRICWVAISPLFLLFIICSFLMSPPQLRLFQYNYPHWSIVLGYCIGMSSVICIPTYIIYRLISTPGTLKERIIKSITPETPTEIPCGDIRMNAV
METRIC: pKi
# pKi: negative log10 of molar concentration; output just the value

Use these answered entries as a reference point.
[
  {
    "COMPOUND": "Fc1cccc(OC2CN([C@H]3CC[C@@H](c4c[nH]c5ccc(F)cc54)CC3)C2)c1",
    "SYSTEM_TESTED": "5-HT transporter (Rattus norvegicus, UniProt P31652)",
    "pKi": 6.59
  },
  {
    "COMPOUND": "COc1cccc(OC2CN([C@H]3CC[C@@H](c4c[nH]c5ccc(F)cc54)CC3)C2)c1",
    "SYSTEM_TESTED": "5-HT transporter (Rattus norvegicus, UniProt P31652)",
    "pKi": 7.62
  },
  {
    "COMPOUND": "Fc1cccc(OC2CN(C3CCC(c4c[nH]c5cc(F)ccc45)CC3)C2)c1 (single isomer, unassigned) [Example 10b]",
    "SYSTEM_TESTED": "5-HT transporter (Rattus norvegicus, UniProt P31652)",
    "pKi": 7.14
  }
]

GET /values?readout=pKi&system=5-HT transporter (Rattus norvegicus, UniProt P31652)&item= COc1ccccc1NC1CN([C@H]2CC[C@@H](c3c[nH]c4ccc(F)cc43)CC2)C1
7.82

Try this compound too: N#Cc1ccc2[nH]cc([C@H]3CC[C@H](N4CC(Oc5cccc(F)c5)C4)CC3)c2c1
7.32

Next compound up: Fc1cccc(OC2CN(C3CCC(c4c[nH]c5cc(F)ccc45)CC3)C2)c1 (single isomer, unassigned) [Example 10a]
6.72
